Data origin, for the record: patent US20220380768A1

subject_of_test: T1, human CD22 on B cells of human PBMCs (human, UniProt P20273 20-847)
T1 construct: whole, on cells; also called CD22 on human B cells
assay_summary: flow cytometry; Alexa Fluor 647-labelled antibody on CD20+ B cells of human PBMCs; further: test concentration or dose not given here
So I've got a bunch of binders here, and I need their CD22 Median Fluorescent Intensity on CD20+ cells values.
One number for each entry.

Some solved cases for reference:
binder | reported
TNT71 (antibody, human IgG1, kappa, V domains shown) VH: EVQLVESGGGLVQPGGSLRLSCAASGFTFSSYEMNWVRQAPGKGLEWVSYISSSGSTIYYADSVKGRFTISRDNAKNSLYLQMNSLRAEDTAVYYCARHSGYGTHWGVLFAYWGRGTLVTVSS VL: DIQMTQSPSSLSASVGDRVTITCRASQDIHGYLNWYQQKPGKAPKLLIYYTSILHSGVPSRFSGSGSGTDFTLTISSLQPEDFATYFCQQGNTLPWTFGQGTKLEIKR | 1460
TNT74 (antibody, human IgG1, kappa, V domains shown) VH: QVQLLESGGGVVQPGGSLRLSCAASGFAFSIYDMNWVRQAPGKGLEWVSAISSGGGTTYYADSVKGRFTISRDNAKNSLYLQMNSLRAEDTAVYYCARHSGYGTHWGVLFAYWGRGTLVTVSS VL: DIQMTQSPSSVSASVGDRVTITCRASQDIHGYLAWYQQKPGKAPKLLIYYTSSLQSGVPSRFSGSGSGTDFTLTISSLQPEDFATYYCQQGNTLPWTFGQGTKLEIKR | 1310
TNT86 (antibody, human IgG1, kappa, V domains shown) VH: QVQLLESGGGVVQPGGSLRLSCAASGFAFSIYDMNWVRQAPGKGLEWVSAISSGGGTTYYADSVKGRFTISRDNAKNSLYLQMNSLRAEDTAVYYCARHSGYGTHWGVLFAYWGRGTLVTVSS VL: DIVMTQTPLSLSVTPGQPASISCRASQDIHGYLNWYQQKPGQSPQLLIYYTSILHSGVPDRFSGSGSGTDFTLKISRVEAEDVGVYFCQQGNTLPWTFGGGTKLEIKR | 1570

The following binders each have a reported value; give each one's CD22 Median Fluorescent Intensity on CD20+ cells.
1. TNT88 (antibody, human IgG1, kappa, V domains shown) VH: QVQLQESGPGLVKPSDTLSLTCTVSGFAFSIYDMSWIRQPPGKGLEWIAYISSGGGTTYYNPSLKSRVTISVDTSKNQFSLKLSSVTAADTAVYYCARHSGYGTHWGVLFAYWGRGTLVTVSS VL: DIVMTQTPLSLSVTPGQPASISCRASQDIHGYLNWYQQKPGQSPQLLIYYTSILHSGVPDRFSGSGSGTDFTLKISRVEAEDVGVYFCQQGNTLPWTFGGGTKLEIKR
2. TNT82 (antibody, human IgG1, kappa, V domains shown) VH: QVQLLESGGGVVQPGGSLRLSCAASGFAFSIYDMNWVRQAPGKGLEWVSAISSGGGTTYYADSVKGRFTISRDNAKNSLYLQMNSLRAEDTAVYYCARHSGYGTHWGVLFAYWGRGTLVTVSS VL: EIVLTQSPATLSLSPGERATLSCRASQDIHGYLNWYQQKPGQAPRLLIYYTSILHSGIPARFSGSGPGTDFTLTISSLEPEDFAVYYCQQGNTLPWTFGGGTKLEIKR
3. TNT69 (antibody, human IgG1, kappa, V domains shown) VH: EVQLVESGGGLVQPGGSLRLSCAASGFAFSIYDMSWVRQAPGKGLEWVAYISSGGGTTYYPDTVKGRFTISRDNSKNTLYLQMNSLRAEDTAVYYCARHSGYGTHWGVLFAYWGRGTLVTVSS VL: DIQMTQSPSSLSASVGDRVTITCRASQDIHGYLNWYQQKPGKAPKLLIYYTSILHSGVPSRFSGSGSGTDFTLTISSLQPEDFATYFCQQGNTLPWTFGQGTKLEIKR
4. TNT77 (antibody, human IgG1, kappa, V domains shown) VH: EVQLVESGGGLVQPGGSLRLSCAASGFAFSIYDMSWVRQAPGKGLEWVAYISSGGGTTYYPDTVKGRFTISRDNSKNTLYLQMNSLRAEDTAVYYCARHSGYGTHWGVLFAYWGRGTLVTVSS VL: DIQMTQSPSSLSASVGDRVTITCRASQSISSYLNWYQQKPGKAPKLLIYAASSLQSGVPSRFSGSGSGTDFTLTISSLQPEDFATYYCQQGNTLPWTFGQGTKLEIKR
5. TNT83 (antibody, human IgG1, kappa, V domains shown) VH: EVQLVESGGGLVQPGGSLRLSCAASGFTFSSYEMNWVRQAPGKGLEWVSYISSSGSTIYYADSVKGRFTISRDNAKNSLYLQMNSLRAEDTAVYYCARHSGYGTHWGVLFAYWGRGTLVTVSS VL: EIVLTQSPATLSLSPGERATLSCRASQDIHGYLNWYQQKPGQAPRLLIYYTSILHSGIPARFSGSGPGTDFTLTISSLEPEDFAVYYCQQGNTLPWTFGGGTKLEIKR
6. TNT73 (antibody, human IgG1, kappa, V domains shown) VH: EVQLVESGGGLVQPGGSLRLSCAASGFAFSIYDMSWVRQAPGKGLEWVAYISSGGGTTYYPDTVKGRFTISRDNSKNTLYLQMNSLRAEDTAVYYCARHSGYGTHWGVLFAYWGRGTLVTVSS VL: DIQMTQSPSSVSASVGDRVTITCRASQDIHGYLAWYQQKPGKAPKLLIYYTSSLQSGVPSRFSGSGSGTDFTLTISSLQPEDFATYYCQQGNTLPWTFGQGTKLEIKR
7. TNT78 (antibody, human IgG1, kappa, V domains shown) VH: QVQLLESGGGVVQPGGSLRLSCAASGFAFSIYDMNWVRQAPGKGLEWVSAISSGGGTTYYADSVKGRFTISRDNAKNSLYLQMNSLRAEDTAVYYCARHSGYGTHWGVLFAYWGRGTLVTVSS VL: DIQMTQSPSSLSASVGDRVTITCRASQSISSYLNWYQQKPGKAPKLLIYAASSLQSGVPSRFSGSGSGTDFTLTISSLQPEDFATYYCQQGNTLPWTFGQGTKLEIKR

[1530, 1520, 1610, 1320, 1490, 1410, 1210]
